Attribution: PubChem BioAssay (NCATS)

Tested on: Zika virus NS2B-NS3 protease (unlinked)
measurement-notes: Optimization of GU AMC qHTS for Zika virus inhibitors: Unlinked NS2B-NS3 protease assay (AID 1347151);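 further: 0% = no-inhibitor control and -100% = no-enzyme control; nearly all actives have a fitted effect of over 80% in size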
setup-conditions: recombinant ZIKV NS2B-NS3 protease, fluorogenic AMC substrate; series mostly up to 52.5 µM
Records with an inconclusive call do not appear. Active and inactive are the calls of the source. The call rests on the fitted dose curve; in most records, active means well fitted inhibition curve with a large enough effect; inconclusive means small, poorly fitted or top-dose-only effect; inactive means no such curve, though single readings can be large or run the other way.
attribute-measured: outcome

CC(=O)C(C)=O; inactive
NC(N)=N[C@@H](CCC(=O)O)C(=O)O; inactive
Nc1ncnc2c1nc(Sc1ccc(Cl)cc1)n2[C@H]1OC2COP(=O)(O)O[C@@H]2C1O (stereo partly drawn); inactive

----------
measurement-notes: qHTS for Inhibitors of ATXN expression: Validation of Cytotoxic Assay (AID 588349);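 further: cells exposed to compound for 72 hr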
setup-conditions: cytotoxicity counter-screen for ATXN expression inhibitors, cell viability; series mostly up to 57.1 µM
Results filed as inconclusive are left out. The source made the active and inactive calls. The call rests on the fitted dose curve; in most records, active means well fitted cell-killing curve with a large enough effect; inconclusive means small, poorly fitted or top-dose-only effect, or effect the other way; inactive means flat fitted curve, though single readings scatter.
Choose the fitting class; nothing outside YES (active), NO (inactive) is accepted.

Example results:
O=c1onc2n1-c1cc(Br)ccc1OC2; NO
[Li+]; NO
N=S(=O)(O)Cc1noc2ccccc12; NO

Fill in: this test's call for C=CCN1CCc2c(cc(O)c(O)c2Br)[C@@H](c2ccccc2)C1 is ___ NO

Fill in: this test's call for COc1ccc(C(=O)NCc2cccnc2)cc1C(=O)NCc1cccnc1 is ___ NO

Fill in: this test's call for NOCC(=O)O is ___ NO

Fill in: this test's call for O=C(O)CCC/C=C\C[C@@H]1[C@@H](/C=C/[C@H](O)C2Cc3ccccc3C2)[C@@H](F)C[C@@H]1O is ___ NO

Fill in: this test's call for OC1(c2ccc(Cl)cc2)CCN(Cc2c[nH]c3ccccc23)CC1 is ___ NO

Fill in: this test's call for CCCC[C@@]1(C2CCCC2)Cc2cc(OCC(=O)O)c(Cl)c(Cl)c2C1=O is ___ NO

----------
Parameter activity: see the listing below.
assayed-system: Phenylethanolamine N-methyltransferase (Homo sapiens) (UniProt P11086)
Sequence (P11086 whole entry, looked up): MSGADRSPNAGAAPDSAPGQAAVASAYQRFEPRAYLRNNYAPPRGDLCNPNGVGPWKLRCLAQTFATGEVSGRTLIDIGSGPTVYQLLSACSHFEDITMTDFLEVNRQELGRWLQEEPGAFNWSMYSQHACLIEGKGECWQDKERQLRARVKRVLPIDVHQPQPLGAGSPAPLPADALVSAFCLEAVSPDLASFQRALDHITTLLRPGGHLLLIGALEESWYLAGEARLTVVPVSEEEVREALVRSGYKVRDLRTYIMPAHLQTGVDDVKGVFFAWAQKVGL
measurement-notes: Confirmatory Screen for Target Class Profiling of Small Molecule Inhibitors of Methyltransferases (AID 1745852)
setup-conditions: MTase-Glo luminescence, SAH detection, recombinant enzyme; measured here: PNMT max response; stronger effect = lower value
Entry format: amount then unit.

// below: answered compounds
Nc1ccc2c3c(cccc13)C(=O)NC2=O; 2.54%
CCCC[C@@]1(C2CCCC2)Cc2cc(OCC(=O)O)c(Cl)c(Cl)c2C1=O; 7.03%
C[C@](Cc1ccc(O)c(O)c1)(NN)C(=O)O; 2.39%
Cn1c(=O)c2[nH]c(-c3ccc(S(=O)(=O)O)cc3)nc2n(C)c1=O; -5.47%
CC[C@@H]1Cc2cc(O)ccc2C2=C1c1ccc(O)cc1C[C@H]2CC; -50.4%

Sample CN(C)C(=O)/N=N/C(=O)N(C)C ; activity observed: -4.1%

Sample C[C@H](NC(=O)/C(C#N)=C/c1ccc(O)c(O)c1)c1ccccc1 ; activity observed: -2.26%

Sample Fc1ccc(CN(C2=NCCN2)c2c(Cl)cccc2Cl)cc1 ; activity observed: -2.64%

Sample CCN(CC)CCCCCCCCOC(=O)c1cc(OC)c(OC)c(OC)c1 ; activity observed: 0.819%

Sample Brc1c(Br)c(Br)c2[nH]cnc2c1Br ; activity observed: -39.7%

Sample O=c1[nH]ccc2c(O)cccc12 ; activity observed: 1.15%

Sample O=C(O)C1=CC(=C(c2ccc(O)c(C(=O)O)c2)c2ccc(O)c(C(=O)O)c2)C=CC1=O ; activity observed: 2.52%

----------
measurement-notes: Validation screen for small molecules that induce DNA re-replication in MCF 10A normal breast cells (AID 463097); further: 0% is about no effect; nearly all actives have a fitted effect of over 60% in size
setup-conditions: MCF 10A cells, DNA re-replication phenotype imaging; series mostly up to 46.1 µM
Records with an inconclusive call do not appear. Active and inactive are the calls of the source. The call rests on the fitted dose curve; in most records, active means well fitted activation curve with a large enough effect; inconclusive means small, poorly fitted or top-dose-only effect; inactive means flat fitted curve, though single readings scatter.
Choose the fitting class; nothing outside True (active), False (inactive) is accepted.

Fill in: this test's call for Cc1nc(N=Nc2cc(S(=O)(=O)O)c3cc([N+](=O)[O-])cc(S(=O)(=O)O)c3c2)c(COP(=O)(O)O)c(C=O)c1O is ___ False

Fill in: this test's call for Cc1ccc2c(c1)C(N1CCN(C)CC1)=Nc1cccnc1N2 is ___ False

Fill in: this test's call for Cc1nc2c(OCc3ccccc3)cccn2c1CC#N is ___ False

Fill in: this test's call for O=c1ccc2c(OCCCCc3ccccc3)c3ccoc3cc2o1 is ___ False

Fill in: this test's call for O=C(O)C1CCNCC1 is ___ False

Fill in: this test's call for N=C(N)c1ccc(N)cc1 is ___ False

Fill in: this test's call for Nc1ccc(CCNc2ncnc3c2ncn3C2OC(CO)C(O)C2O)cc1 (configuration not stated) is ___ False

Fill in: this test's call for NCCCCN=C(N)N is ___ False

Fill in: this test's call for NC1CONC1=O (configuration not stated) is ___ False

Fill in: this test's call for O=C(O)C1CN(CCCP(=O)(O)O)CCN1 (configuration not stated) is ___ False

Fill in: this test's call for Nc1ncnc2c1ncn2C1CCCO1 (configuration not stated) is ___ False

Fill in: this test's call for CC(=O)N[C@@H](Cc1c[nH]c2ccccc12)C(=O)OCc1cc(C(F)(F)F)cc(C(F)(F)F)c1 is ___ False

Fill in: this test's call for O=c1[nH]c2ccccc2c2ccccc12 is ___ False

Fill in: this test's call for CCCN(CCc1ccccc1)C1CCc2c(O)cccc2C1 (configuration not stated) is ___ False

----------
assayed-system: Flap endonuclease 1 (Homo sapiens)
measurement-notes: qHTS Validation Assay for the Inhibitors of Human Flap endonuclease 1 (FEN1) (AID 488816); further: potency means the concentration at half of the fitted maximal effect
setup-conditions: FEN1 nuclease activity, fluorogenic DNA substrate; series mostly up to 57.1 µM
The source made the active and inactive calls. Calls come from the whole dose curve; as a rule, active = well fitted inhibition curve with a large enough effect; inconclusive = small, poorly fitted or top-dose-only effect; inactive = flat fitted curve, though single readings scatter.
attribute-measured: Potency

CN1CC(O)C(O)C(O)C1CO (configuration not stated); inactive
CC(=O)NNC(=O)N1Cc2ccccc2Oc2ccc(Cl)cc21; inactive
CC1CNCCN1S(=O)(=O)c1cccc2cnccc12 (configuration not stated); inactive
CCC1(O)CC2CN(CCc3c([nH]c4ccccc34)[C@@](C(=O)OC)(c3cc4c(cc3OC)N(C)C3[C@]45CCN4CC=C[C@@](CC)([C@@H](OC(C)=O)[C@]3(O)C(=O)OC)[C@H]45)C2)C1 (some centres not stated); inactive

Sample c1ccc(CN2CCC3(CCCc4ccccc43)CC2)cc1 ; Potency observed: inactive

Sample NC(=O)CNCCC(c1ccccc1)c1ccccc1 ; Potency observed: inactive

Sample Oc1cc(O)c2c(c1)O[C@H](c1ccc(O)c(O)c1)[C@@H](O)C2 ; Potency observed: 4.74 µM (active)

----------
measurement-notes: qHTS for Inhibitors of ATXN expression: Validation of Cytotoxic Assay (AID 588349);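 further: cells exposed to compound for 72 hr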
setup-conditions: cytotoxicity counter-screen for ATXN expression inhibitors, cell viability; series mostly up to 57.1 µM
Inconclusive results are not listed. Activity calls are given as the source filed them. The call rests on the fitted dose curve; in most records, active means well fitted cell-killing curve with a large enough effect; inconclusive means small, poorly fitted or top-dose-only effect, or effect the other way; inactive means flat fitted curve, though single readings scatter.
Choose the fitting class; nothing outside label 1 for active, label 0 for inactive is accepted.

CC(N)(C(=O)O)c1ccc(C(=O)O)cc1 (stereo not given); label 0
O=c1onc2cnc3ccccc3n12; label 0
C[N+](C)(C)CC=O; label 0
O=C(O)c1ccccc1Nc1cccc(OCc2ccc3ccccc3n2)c1; label 0
O=C(N[C@@H](Cc1ccccc1)C(=O)CCl)OCc1ccccc1; label 1
COc1ccc(-c2ccc(N)[n+](CCCC(=O)O)n2)cc1; label 0
O=C(O)/C=C/c1cnc[nH]1; label 0
C[C@H]1CC2C3CCC4=CC(=O)C=C[C@]4(C)[C@@]3(Cl)[C@@H](O)C[C@]2(C)[C@@]1(O)C(=O)CO (stereo not given in full); label 0

Fill in: this test's call for O=C(O)c1cccnc1C(=O)O is ___ label 0

Fill in: this test's call for N#CC(=C(\N)Sc1ccccc1N)/C(C#N)=C(/N)Sc1ccccc1N is ___ label 0

Fill in: this test's call for Oc1cc2c(cc1O)C(c1ccccc1)CNCC2 (stereo not given) is ___ label 0

Fill in: this test's call for CC(=O)N[C@@H](Cc1c[nH]c2ccccc12)C(=O)OCc1cc(C(F)(F)F)cc(C(F)(F)F)c1 is ___ label 0

Fill in: this test's call for O=C(O)C1CCNCC1 is ___ label 0

----------
measurement-notes: qHTS for differential inhibitors of proliferation of Plasmodium falciparum line GB4 (AID 1816);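 further: parasite growth measured after 72 h incubation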; further: potency means the concentration at half of the fitted maximal effect
setup-conditions: Plasmodium falciparum GB4 proliferation inhibition; series mostly up to 28.7 µM
Results filed as inconclusive are left out. The source made the active and inactive calls. Calls follow the shape of the dose curve; as a rule, active = well fitted curve in the direction sought with a large enough effect; inconclusive = small, poorly fitted or top-dose-only effect, or another doubt; inactive = no such curve, though single readings can be large or run the other way.
attribute-measured: Potency

O=C(O)[C@H]1NCCC[C@H]1C(=O)O; inactive
CCCCCCN(CCCCCC)C(=O)Cc1c(-c2ccc(F)cc2)[nH]c2ccccc12; 3.98 µM (active)
O=c1cc(O)cc(/C=C/c2ccc(O)c(O)c2)o1; 12.6 µM (active)
O=C(O)Cc1c[nH]c2ccc(O)cc12; inactive
N[C@H](C(=O)O)c1cc(O)cc(O)c1; inactive
NC(N)=[N+]1CCc2ccccc2C1; inactive
NCC(O)(CS(=O)(=O)O)c1ccc(Cl)cc1 (centres undefined); inactive
Nc1nc2[nH]c(=O)cnc2c(=O)[nH]1; inactive

Sample NC1C=CC=C(C(=O)O)C1 (centres undefined) ; Potency observed: inactive
